Settings: CD-1 mice, oral, 40 mg/kg
Output met for Cmax plasma not less than 7000 ng/mL; output not met otherwise.

These solved cases illustrate the format of a correct answer.
compound: O=[N+]([O-])c1cn2c(n1)OC[C@@H](OCc1ccc(-c3ccc(C(F)(F)F)cn3)cc1)C2 [compound 8]
label.class: not met

compound: O=[N+]([O-])c1cn2c(n1)OC[C@@H](OCc1cnc(-c3ccc(OC(F)(F)F)cc3)cn1)C2 [compound 4]
label.class: met

compound: O=[N+]([O-])c1cn2c(n1)OC[C@@H](OCC#Cc1ccc(-c3ccc(OC(F)(F)F)cc3)cc1)C2 [compound 30]
label.class: not met

compound: O=C(O[C@@H]1COc2nc([N+](=O)[O-])cn2C1)N1CCN(c2ccc(OC(F)(F)F)cc2)CC1 [compound 20]
label.class: not met

compound: O=[N+]([O-])c1cn2c(n1)OC[C@@H](OCc1ccc(-c3ccc(F)cc3)nc1)C2 [compound 5]
label.class: not met

compound: O=[N+]([O-])c1cn2c(n1)OC[C@@H](OCc1ccc(-c3ccc(OC(F)(F)F)cc3)cc1F)C2 [compound 12]
label.class: not met

Prompt: In plain terms: is recorded Cmax plasma at least 7000 ng/mL for O=[N+]([O-])c1cn2c(n1)OC[C@@H](Oc1ccc(-c3ccc(OC(F)(F)F)cc3)cc1)C2 [compound 13] ?
Response: not met

Prompt: Then this compound: O=[N+]([O-])c1cn2c(n1)OC[C@@H](OCc1ccc(-c3ccc(OC(F)(F)F)c(F)c3)cn1)C2 [compound 22]
Response: met
